Measured values drawn from patent US20140056918A1 for this set.

tgt: T1, Human OSCAR (osteoclast-associated receptor), full length, on cells (human)
T1 chain: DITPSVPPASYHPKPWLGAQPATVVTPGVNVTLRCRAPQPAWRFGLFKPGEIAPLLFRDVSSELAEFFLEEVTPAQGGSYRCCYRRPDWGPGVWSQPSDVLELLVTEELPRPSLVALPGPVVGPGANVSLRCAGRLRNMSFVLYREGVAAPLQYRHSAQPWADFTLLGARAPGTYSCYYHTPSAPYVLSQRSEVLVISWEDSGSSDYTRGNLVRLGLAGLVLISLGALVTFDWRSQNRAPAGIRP
protocol.details: cell-based or functional assay
quantity.measured: IC50 (IL-8), ColI-induced IL-8 release from moDC, Donor 3 (nM)
Answer format: numeric, nM implied, no suffix.

These recorded examples may help you get a feel for the data.
1. 7F1A1 (antibody, V domains shown, Mouse anti-human OSCAR mAb; The heavy chain entry covers only VH-CH1 and the start of the hinge) VH: QVQLQQSGAELVRPGTSVKVSCKASGYAFTNYMIEWVKKRPGQGLEWIGVINPGSGGTNYNEKFENKATLTADKSSSTAYMQLSSLTSDDSAVYFCARSLDFDGAWFAYWGQGTLVTVSA VL: DIQMTQSPASLSVSVGETVTITCRASEKIYSNLAWYQQKQGKSPQLLVYAATNLADGVPSRFSGSGSGTQFSLKINSLQPEDFGSYYCQHFWGIPWTFGGGTKLEIKR: 0.1
2. 4F3B (antibody, V domains shown, Mouse anti-human OSCAR mAb (its isotype control is mIgG1); The heavy chain entry covers only VH-CH1 and the start of the hinge; It was fluorescein-labelled in the peptide array and Alexa Fluor 647-labelled in the flow binning; also called mAb 4F3B) VH: QVQLQQSGAELAKPGASVKMSCKASGFTFTSYWMHWVKQRPGQGLEWIGYINPSTDYTEYNQKFKDKATLTADKSSSTAYMQLSSLTSEDSAVYYCARRSPFAMDYWGQGTSVTVSS VL: DIVMTQSPSSLTVTAGEKVTMSCKSSQSLLNSGNQKNYLTWYQQKPGQPPKVLIYWASTRESGVPDRFTGSGSGTDFTLTISSVQAEDLAVYYCQNDYSYPLTFGTGTKLELKR: 0.4

Switching to the query record.
For 7F6A1 (antibody, V domains shown, Mouse anti-human OSCAR mAb; The heavy chain entry covers only VH-CH1 and the start of the hinge) VH: DVKLVESGGGLVKPGGSLKLSCAASGFTFSSYVMSWVRQTPEKRLEWVATISSGGSYTYYPDSVKGRFTISRDNAKNTLYLQMSSLKSEDTAMYYCTREGGNSPDYWGQGTTLTVSS VL: ENVLTQSPAIMSASPGEKVTMTCSVSSSISYMHWYRQKSFTSPQLWIYDTSKLASGVPGRFSGSGSGISYSLTISSMEAEDVATYYCFQGSEYPLTFGAGTKLELKR , what is its reported IC50 (IL-8), ColI-induced IL-8 release from moDC, Donor 3?
0.91
